Value source: PubChem BioAssay (NCI)

- Test system: HT29 colon
- procedure text: NCI tumour cell line growth inhibition, 48 h
measured attribute: TGI (µM)
Express it in µM; write the number only.

Study these solved cases before continuing.
- compound: "O=c1c2ccccc2n2nnc3ccc(NCCCNCCNCCCNc4ccc5nnn6c7ccccc7c(=O)c4c56)c1c32"
  target system: "HT29 colon"
  TGI / µM: 1.52
- compound: "CCN(CC)CC(=O)/C=C/c1ccc(C)cc1"
  target system: "HT29 colon"
  TGI / µM: 45.1
- compound: "CC(=O)O[C@H]1CC[C@@]2(C)C(CC[C@]3(C)C2CC[C@]2(C)Oc4c(C)cc(O)cc4C[C@@H]23)C1(C)C (stereo not given in full)"
  target system: "HT29 colon"
  TGI / µM: 23.9

--- query ---
Test item `C=C1C(=O)O[C@H]2[C@H]1CC/C(CNC(=O)/C=C/c1cccc(OC)c1)=C\CC[C@@]1(C)O[C@@H]21` ; HT29 colon; reported TGI was 2.81

====

- System: MDA-N
- procedure text: NCI tumour cell line growth inhibition, 48 h
measured attribute: TGI (µM)
Express it in µM; write the number only.

- structure smiles string: "CC(=N\\O)/C(C)=N/O.CC(=N\\O)/C(C)=N/O.CC(=N\\O)/C(C)=N/O.CC(=N\\O)/C(C)=N/O.[Cu].[Cu]"
  units of measure: "µM"
  TGI: 43.5

--- query ---
Kindly note the recorded TGI for `O=C(CN1CCCCC1)c1ccc2c(c1)Sc1ccccc1O2` , which is 34.5

====

We begin with a simple list: items and their reported TGI.
- Test system: LXFL 529 NSCLC
- procedure text: NCI tumour cell line growth inhibition, 48 h

- compound: "C=CCC12CCC(=O)C=C1CCC1(C2)OCCO1 (stereo unspecified)"
  TGI: "> 100 µM"

Kindly note the recorded TGI for `CS(=O)(=O)N(CCC#N)c1ccc(/C=N/NC(=O)CC(=O)Nc2cccc(Cl)c2)cc1` , which is > 100 µM

Kindly note the recorded TGI for `COc1ccc(C[C@H](N)C(=O)N2C[C@H](CO)C[C@H](n3ccc(=O)[nH]c3=O)C2)cc1` , which is > 100 µM

Kindly note the recorded TGI for CCOC(=O)C(=O)C1C(=O)Nc2ccccc21 (stereo unspecified) , which is > 100 µM

Kindly note the recorded TGI for `CCNc1c(C(=O)N(CC)CC)c(=O)[nH]c2ncccc12` , which is > 100 µM

Kindly note the recorded TGI for CC(=O)NC1=C(C)C(=O)c2c(nc3n2CCC3O)C1=O (stereo unspecified) , which is 41.8 µM

====

We begin with a simple list: items and their reported TGI.
- Tested on: OVCAR-3 ovarian
- procedure text: NCI tumour cell line growth inhibition, 48 h
Express it in µM; write the number only.

Study these solved cases before continuing.
- molecule: "C1#Cc2ccccc2OCCOc2ccccc2C#Cc2ccccc2OCCOc2ccccc21"
  units of measure: "µM"
  assay value: 39.3
- molecule: "COc1ccc(Nc2ccnc(NCCNc3ccnc4cc(Cl)ccc34)n2)cc1"
  units of measure: "µM"
  assay value: 10.3
- molecule: "OCCCCC#Cc1ccccc1C#Cc1ccccc1F"
  units of measure: "µM"
  assay value: 43.6
- molecule: "O=C1c2ccccc2-c2c1c1ccc([N+](=O)[O-])cc1c(=O)n2CCNCCCNCCn1c2c(c3ccc([N+](=O)[O-])cc3c1=O)C(=O)c1ccccc1-2"
  units of measure: "µM"
  assay value: 5.19
- molecule: "CC1=C(SCc2ccccc2)C(=O)c2ccccc2C1=O"
  units of measure: "µM"
  assay value: 23.1

Kindly note the recorded TGI for `CCN(CC)c1ccc(N=C2C=CC(=O)c3ncccc32)c(C)c1` , which is 11.4

Kindly note the recorded TGI for C=C(C)C(=O)OC1CC2(C)OC2CC(OC(C)=O)/C(C)=C/C2OC(=O)C(=C)C21 (centres undefined) , which is 7.96

Kindly note the recorded TGI for `Cc1ccccc1S(=O)(=O)N1[C@H](c2ccc(Cl)cc2)C(C(=O)N[C@@H](Cc2ccccc2)C(N)=O)=C[C@@H]1C(C)(C)C` , which is 14

Kindly note the recorded TGI for `CCOC(=O)c1c2c(n(-c3ccc(OC)cc3)c1C)C(=O)C(=O)c1ccccc1-2` , which is 1.34
